- assayTarget: Alzheimer's Aβ 1-42 amyloid fibrils (Homo sapiens, UniProt P05067)
- Construct: 1 mg of Aβ 1-42 (Bachem Inc., Torrance, Calif., USA) was dissolved; purchased Bachem Inc., Torrance, Calif., USA
- Sequence (P05067 672-713): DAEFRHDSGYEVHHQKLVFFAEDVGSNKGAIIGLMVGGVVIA
- protocolDescription: Disassembly/disruption of pre-formed Aβ 1-42 fibrils, Thioflavin T fluorometry
- Assay type: biochemical
- experimentalSetup: 18 h, read-out: Fluorescence inhibition, %, at the Aβ 1-42:compound w/w ratio 1:1
measurementLabel: inhibition at 100 µg/mL (%)
Respond numerically; units are % and should not be typed.

The reported value for O=C(c1cc(O)c(O)c(O)c1)c1ccc(O)c(O)c1O [Exifone, exifone] in terms of inhibition at 100 µg/mL is 93

# compound NC(=O)c1cc(O)c(O)c(O)c1 [Gallamide trihydrate, gallamide trihydrate] ; its inhibition at 100 µg/mL = 65

Entry O=C(OC[C@H]1O[C@@H](OC(=O)c2cc(O)c(O)c(OC(=O)c3cc(O)c(O)c(O)c3)c2)[C@H](OC(=O)c2cc(O)c(O)c(OC(=O)c3cc(O)c(O)c(O)c3)c2)[C@@H](OC(=O)c2cc(O)c(O)c(OC(=O)c3cc(O)c(O)c(O)c3)c2)[C@@H]1OC(=O)c1cc(O)c(O)c(OC(=O)c2cc(O)c(O)c(O)c2)c1)c1cc(O)c(O)c(OC(=O)c2cc(O)c(O)c(O)c2)c1 [Tannic acid, tannic acid] , inhibition at 100 µg/mL reported as 77

For this compound ( O=c1c(O)c(-c2cc(O)c(O)c(O)c2)oc2cc(O)cc(O)c12 [Myricetin, myricetin] ), measured inhibition at 100 µg/mL is 94
